system: S462; experiment: drug sensitivity score (DSS, CellTiter-Glo viability, 72 h) (DSS (dimensionless)); higher = more sensitive; extreme values may be limits of the assay
Readout Name: drug sensitivity score
Lab note: record the figure alone, no unit after it.

Below are worked cases with known answers.
CC1(COc2ccc3c(c2)ncn3-c2ccc3cccc(N4CCC(N)CC4)c3n2)COC1 [Crenolanib] (max concentration tested 10000 nM) ... 5.16
S=P(N1CC1)(N1CC1)N1CC1 [Thio-TEPA] (max concentration tested 50000 nM) ... 0
C=CC(=O)N1CCC[C@@H](n2nc(-c3ccc(Oc4ccccc4)cc3)c3c(N)ncnc32)C1 [Ibrutinib] (max concentration tested 1000 nM) ... 0

Query: Data request, read-out drug sensitivity score, for Cc1ccc(NC(=O)c2ccc(CN3CCN(C)CC3)cc2)cc1Nc1nc(-c2cccnc2)cs1 [Masitinib] (max concentration tested 10000 nM)
Response: 3.78

Query: Try the compound CC1=C(/C=C/C(C)=C/C=C/C(C)=C/C(=O)O)C(C)(C)CCC1 [Tretinoin] (max concentration tested 10000 nM)
Response: 0

Query: Try the compound c1ccc([C@H]2CN3CCSC3=N2)cc1 [Levamisole] (max concentration tested 10000 nM)
Response: 0

====

test system: S1507-2; assay: drug sensitivity score (DSS, CellTiter-Glo viability, 72 h) (DSS (dimensionless)); higher = more sensitive; extreme values may be limits of the assay
Readout Name: drug sensitivity score
Lab note: record the figure alone, no unit after it.

Cn1cc(C2=C(c3cn(C4CCN(Cc5ccccn5)CC4)c4ccccc34)C(=O)NC2=O)c2ccccc21 [Enzastaurin] (max concentration tested 10000 nM) ... 3.15
CC(C)(C)Cn1c(N)nc2ccc(-c3[nH]c(C(C)(C)C)nc3-c3ccc(F)cc3)nc21 [Ralimetinib] (max concentration tested 10000 nM) ... 2.27
Cn1c(=O)c(F)c(Nc2ccc(I)cc2F)c2c(=O)n(C[C@@H](O)CO)cnc21 [TAK-733] (max concentration tested 1000 nM) ... 7.36
CCc1c(C(=O)C(N)=O)c2c(OCC(=O)O)cccc2n1Cc1ccccc1 [Varespladib] (max concentration tested 10000 nM) ... 0.0077
CCN1CCN(c2ccc(Nc3cc(N(C)C(=O)Nc4c(Cl)c(OC)cc(OC)c4Cl)ncn3)cc2)CC1 [NVP-BGJ398] (max concentration tested 1000 nM) ... 0.00445

Query: Data request, read-out drug sensitivity score, for COc1ncc(-c2ccc3nccc(-c4ccnnc4)c3c2)cc1NS(=O)(=O)c1ccc(F)cc1F (max concentration tested 1000 nM)
Response: 14

====

test system: YST-1; assay: drug sensitivity score (DSS, CellTiter-Glo viability, 72 h) (DSS (dimensionless)); higher = more sensitive; extreme values may be limits of the assay
Readout Name: drug sensitivity score
Lab note: record the figure alone, no unit after it.

Cc1ccc(NC(=O)c2ccc(CN3CC[C@H](N(C)C)C3)c(C(F)(F)F)c2)cc1Nc1nccc(-c2cncnc2)n1 [Bafetinib] (max concentration tested 1000 nM) ... 1.49

Query: Data request, read-out drug sensitivity score, for NC(=O)Nc1cc(-c2cccc(F)c2)sc1C(=O)N[C@H]1CCCNC1 [AZD7762] (max concentration tested 1000 nM)
Response: 4.02

====

system: S1507-2; experiment: % inhibition of CellTiter-Glo viability at highest tested concentration (72 h), relative to DMSO and benzethonium chloride controls; higher = more inhibition
Readout Name: % inhibition (%)
Give the value in % but do not write % after it.

Below are worked cases with known answers.
CCOc1cc2ncc(C#N)c(Nc3ccc(OCc4ccccn4)c(Cl)c3)c2cc1NC(=O)/C=C/CN(C)C [Neratinib] (max concentration tested 1000 nM) ... 49.1
CCc1c2c(nc3ccc(OC(=O)N4CCC(N5CCCCC5)CC4)cc13)-c1cc3c(c(=O)n1C2)COC(=O)[C@]3(O)CC [Irinotecan] (max concentration tested 10000 nM) ... 75.8

Now for a further compound.
Query: Data request, read-out % inhibition, for CC(C)(C#N)c1cc(Cn2cncn2)cc(C(C)(C)C#N)c1 [Anastrozole] (max concentration tested 10000 nM)
Response: -9.3

====

Parameter % inhibition: see the listing below.
test system: HS-PSS; experiment: % inhibition of CellTiter-Glo viability at highest tested concentration (72 h), relative to DMSO and benzethonium chloride controls; higher = more inhibition
Give the value in % but do not write % after it.

CO[C@H]1C[C@@H]2CC[C@@H](C)[C@@](O)(O2)C(=O)C(=O)N2CCCC[C@H]2C(=O)O[C@H]([C@H](C)C[C@@H]2CC[C@@H](OP(C)(C)=O)[C@H](OC)C2)CC(=O)[C@H](C)/C=C(\C)[C@@H](O)[C@@H](OC)C(=O)[C@H](C)C[C@H](C)/C=C/C=C/C=C/1C [Ridaforolimus] (max concentration tested 100 nM) ... 28.6

Query: Data request, read-out % inhibition, for CC(=O)c1c(C)c2cnc(Nc3ccc(N4CCNCC4)cn3)nc2n(C2CCCC2)c1=O [Palbociclib] (max concentration tested 10000 nM)
Response: 41.6

====

Parameter % inhibition: see the listing below.
test system: STS26T; assay: % inhibition of CellTiter-Glo viability at highest tested concentration (72 h), relative to DMSO and benzethonium chloride controls; higher = more inhibition

COc1cc2c(Oc3ccc(NC(=O)C4(C(=O)Nc5ccc(F)cc5)CC4)cc3F)ccnc2cc1OCCCN1CCOCC1 [Foretinib] (max concentration tested 1000 nM) ... 48.4%

Query: Data request, read-out % inhibition, for Nc1nc(NC2CC2)cc(-c2cccc(Cl)c2Cl)n1 [TH588] (max concentration tested 25000 nM)
Response: 102%

Query: Try the molecule COc1cc2ncnc(Nc3ccc(F)c(Cl)c3)c2cc1OCCCN1CCOCC1 [Gefitinib] (max concentration tested 10000 nM)
Response: 53.6%

====

system: HSC2 (primary human Schwann cells); test: drug sensitivity score (DSS, CellTox-Green cytotoxicity, 72 h) (DSS (dimensionless)); higher = more cytotoxic; extreme values may be limits of the assay
Readout Name: drug sensitivity score
Lab note: record the figure alone, no unit after it.

Cc1ccc([N+](=O)[O-])cc1S(=O)(=O)N(C)/N=C/c1cnc2ccc(Br)cn12 [PIK-75] (max concentration tested 10000 nM) ... 9.74
CNC(=O)c1cccc(-c2ccc3c(N4CCOC[C@@H]4C)nc(N4CCOC[C@@H]4C)nc3n2)c1 [AZD2014] (max concentration tested 10000 nM) ... 0
Cc1nc(C(=O)NCC(=O)O)c(O)c2ccc(Oc3ccccc3)cc12 [FG-4592] (max concentration tested 10000 nM) ... 0
CC(C)(C)c1cc(NC(=O)Nc2ccc(-c3cn4c(n3)sc3cc(OCCN5CCOCC5)ccc34)cc2)no1 [Quizartinib] (max concentration tested 1000 nM) ... 0
C[C@@H]1C[C@H]2[C@@H]3CCC4=CC(=O)C=C[C@]4(C)[C@@]3(F)[C@@H](O)C[C@]2(C)[C@@]1(O)C(=O)CO [Dexamethasone] (max concentration tested 10000 nM) ... 0
Cc1ccc(NC(=O)c2ccc(CN3CCN(C)CC3)cc2)cc1Nc1nc(-c2cccnc2)cs1 [Masitinib] (max concentration tested 10000 nM) ... 0.804
c1cc(CN2CCCNCCNCCCNCC2)ccc1CN1CCCNCCNCCCNCC1 [Plerixafor aq] (max concentration tested 10000 nM) ... 2.79
Nc1ncnc2c1c(COc1cccc(Cl)c1)nn2C1CCOCC1 (max concentration tested 10000 nM) ... 0
CS(=O)(=O)N1CCN(Cc2cc3nc(-c4cccc5[nH]ncc45)nc(N4CCOCC4)c3s2)CC1 [Pictilisib] (max concentration tested 10000 nM) ... 0
O=C(Nc1cccnc1)N1CCC(Cc2cccc(Oc3ccc(C(F)(F)F)cn3)c2)CC1 [PF-3845] (max concentration tested 10000 nM) ... 0.053

Query: Which measured drug sensitivity score belongs to COc1cccc2cc(-c3nc([C@H]4CC[C@H](C(=O)O)CC4)n4ncnc(N)c34)[nH]c12 [OSI-027] (max concentration tested 10000 nM) , tested on HSC2 (primary human Schwann cells)?
Response: 0

Query: Try the molecule C[C@@]1(C(=O)Nc2ccc(F)nc2)CCCN1c1nc(Nc2cc(C3CC3)n[nH]2)c2cccn2n1 (max concentration tested 10000 nM)
Response: 9.9

====

tested on: HS-Sch-2; experiment: % inhibition of CellTiter-Glo viability at highest tested concentration (72 h), relative to DMSO and benzethonium chloride controls; higher = more inhibition
Given measured % inhibition, output Fulfilled if it is greater than or equal to 30% and Not fulfilled if not.

CN(C)C1CCN(C(=O)c2ccc(NC(=O)Nc3ccc(-c4nc(N5CCOCC5)nc(N5CCOCC5)n4)cc3)cc2)CC1 [Gedatolisib] (max concentration tested 1000 nM) ... Fulfilled

Query: Entry Nc1ncn([C@H]2C[C@H](O)[C@@H](CO)O2)c(=O)n1 [Decitabine] (max concentration tested 10000 nM) : is its % inhibition no less than 30%?
Response: Not fulfilled

Query: Try the molecule Nc1nc(F)nc2c1ncn2[C@@H]1O[C@H](CO)[C@@H](O)[C@@H]1O [Fludarabine] (max concentration tested 10000 nM)
Response: Fulfilled

Query: Try the molecule O=C(/C=C\n1cnc(-c2cc(C(F)(F)F)cc(C(F)(F)F)c2)n1)NNc1ccccn1 [Verdinexor] (max concentration tested 1000 nM)
Response: Fulfilled

Query: Try the molecule Cc1ccccc1C(C(=O)NC1CCCCC1)N(C(=O)Cn1ccnc1C)c1cccc(F)c1 (configuration not stated) [AGI-5198] (max concentration tested 10000 nM)
Response: Not fulfilled

Query: Try the molecule CN(C)C(=O)c1ccc(S(=O)(=O)c2ccc(NC(=O)[C@@](C)(O)C(F)(F)F)c(Cl)c2)cc1 [AZD7545] (max concentration tested 10000 nM)
Response: Not fulfilled

Query: Try the molecule COc1cc(Nc2ncc3c(n2)-c2ccc(Cl)cc2C(c2c(F)cccc2OC)=NC3)ccc1C(=O)O [Alisertib] (max concentration tested 10000 nM)
Response: Fulfilled

Query: Try the molecule NC(=O)NO [Hydroxyurea] (max concentration tested 100000 nM)
Response: Not fulfilled

Query: Try the molecule COC(=O)C[C@](O)(CCCC(C)(C)O)C(=O)O[C@@H]1C(OC)=C[C@]23CCCN2CCc2cc4c(cc2[C@H]13)OCO4 [Omacetaxine] (max concentration tested 10000 nM)
Response: Fulfilled

Query: Try the molecule Nc1cc(C(F)(F)F)c(-c2cc(N3CCOCC3)nc(N3CCOCC3)n2)cn1 [Buparlisib] (max concentration tested 10000 nM)
Response: Fulfilled

Query: Try the molecule Oc1ccc2c(c1)CC[C@H](c1ccccc1)[C@@H]2c1ccc(OCCN2CCCC2)cc1 [Lasofoxifene] (max concentration tested 1000 nM)
Response: Not fulfilled

Query: Try the molecule COc1cc(N2CCN(C)CC2)ccc1Nc1nccc(-c2cn(C)c3cnccc23)n1 [AZ191] (max concentration tested 10000 nM)
Response: Fulfilled
